Just for reference, patent US20090298811A1 is where these values come from.

# assay.target: human CB1 receptor (Homo sapiens, UniProt P21554)
# Sequence (P21554 whole entry): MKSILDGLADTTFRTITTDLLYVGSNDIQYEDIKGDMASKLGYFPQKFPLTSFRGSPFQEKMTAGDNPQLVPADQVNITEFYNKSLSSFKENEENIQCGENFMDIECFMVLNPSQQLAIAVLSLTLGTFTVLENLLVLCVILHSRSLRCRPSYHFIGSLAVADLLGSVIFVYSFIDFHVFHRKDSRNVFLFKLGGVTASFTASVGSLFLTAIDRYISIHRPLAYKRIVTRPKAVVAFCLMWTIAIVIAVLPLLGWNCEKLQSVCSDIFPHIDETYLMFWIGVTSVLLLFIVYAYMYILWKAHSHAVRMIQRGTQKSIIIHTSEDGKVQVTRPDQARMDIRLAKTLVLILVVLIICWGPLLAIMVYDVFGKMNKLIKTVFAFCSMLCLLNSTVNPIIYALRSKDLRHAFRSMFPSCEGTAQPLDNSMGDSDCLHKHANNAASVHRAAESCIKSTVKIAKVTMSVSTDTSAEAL
# assay.details: GTPγS binding on membranes of CHO cells expressing the human CB1 receptor
# assay.setup: CHO cell membranes, [35S] GTPγS
readout.name: log10 of EC50 (log10 of the value in nM)
Friendly reminder: values = log10 of EC50, unit nM.

molecule	log10 of EC50
Cc1ccc2c(c1)n(C(=O)N[C@H](C(N)=O)C(C)(C)C)c(=O)n2CC1CCCCC1 [Example 167]	1.65

What the record says about Cc1nc(CNC(=O)n2c(=O)n(CC3CCOCC3)c3ccccc32)cs1 [Example 341] : log10 of EC50 is 2.55

What the record says about CNC(=O)[C@@H](NC(=O)n1c(=O)n(CC2CCOCC2)c2ccccc21)C(C)(C)C [Example 303] : log10 of EC50 is 1.56

What the record says about Cc1ccc2c(c1)n(CC1CCCCC1)c(=O)n2C(=O)N[C@H](C(N)=O)C(C)C [Example 269] : log10 of EC50 is 1.38

What the record says about CC(C)(C)[C@H](NC(=O)n1c(=O)n(Cc2ccccc2)c2ccccc21)c1nnc(N)o1 [Example 359] : log10 of EC50 is 1.90

What the record says about CC(C)(C)[C@H](NC(=O)n1c(=O)n(Cc2ccccc2)c2ccccc21)C(N)=O [Example 348] : log10 of EC50 is 1.78

What the record says about CC(C)(C)[C@H](NC(=O)n1c(=O)n(CC2CCCCC2)c2cccc(F)c21)C(N)=O [Example 271] : log10 of EC50 is 0.81

What the record says about CCCCCn1c(=O)n(C(=O)N[C@H](CO)C(C)(C)C)c2ccccc21 [Example 178] : log10 of EC50 is 2.14
